# Test details: self-splicing fitness, log relative to wild type (ln ratio); higher = more splicing; Tetrahymena group I intron in knt gene, E. coli kanamycin selection, DiMSum; sequences stand for … in CUCUCU…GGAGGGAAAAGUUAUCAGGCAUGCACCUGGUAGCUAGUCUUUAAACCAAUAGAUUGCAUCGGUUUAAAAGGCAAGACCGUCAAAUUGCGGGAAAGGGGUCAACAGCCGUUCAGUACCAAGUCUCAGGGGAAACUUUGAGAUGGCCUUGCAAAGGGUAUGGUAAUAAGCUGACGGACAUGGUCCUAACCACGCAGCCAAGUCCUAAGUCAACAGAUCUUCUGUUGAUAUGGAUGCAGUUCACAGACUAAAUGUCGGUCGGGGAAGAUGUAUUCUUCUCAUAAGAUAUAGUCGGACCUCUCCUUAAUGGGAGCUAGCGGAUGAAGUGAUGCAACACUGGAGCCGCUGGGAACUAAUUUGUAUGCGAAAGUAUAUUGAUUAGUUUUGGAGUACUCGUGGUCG;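 also: selection with 25 µg/mL kanamycin versus none on LB agar overnight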
# Settings: 30 °C
Quantity measured: self-splicing fitness (ln)

>  <Seq text>
UGAAAGCAAUAUUACGAGAG

>  <Quantity measured>
self-splicing fitness (ln)

>  <Result>
-4.15

$$$$

I need self-splicing fitness (ln) for every entry listed below, if you could help.
1. CGGUAGCAAUAUUACGUCGC
2. ACUUAGCAAUAUUACGGGCC
3. GCAGAGCAAUAUUACGGCUC
4. AAAGAGCAAUAUUACGUGAC
5. AGAGAGCAAUAUUACGUGCA

## Output
1: -3.35; 2: -2.42; 3: -2.69; 4: -4.21; 5: -3.36

Parameters: items (list). Returns: self-splicing fitness (ln) for each item.
1. GAAUAGCAAUAUUACGACGU
2. CAGGAGCAAUAUUACGUCUU
3. GCAUAGCAAUAUUACGACGU
4. CCGGAGCAAUAUUACGCAUG

## Output
1: -0.363; 2: -2.33; 3: -0.0199; 4: -1.66

====

# Test details: self-splicing fitness, log relative to wild type (ln ratio); higher = more splicing; Tetrahymena group I intron in knt gene, E. coli kanamycin selection, DiMSum; sequences stand for … in CUCUCU…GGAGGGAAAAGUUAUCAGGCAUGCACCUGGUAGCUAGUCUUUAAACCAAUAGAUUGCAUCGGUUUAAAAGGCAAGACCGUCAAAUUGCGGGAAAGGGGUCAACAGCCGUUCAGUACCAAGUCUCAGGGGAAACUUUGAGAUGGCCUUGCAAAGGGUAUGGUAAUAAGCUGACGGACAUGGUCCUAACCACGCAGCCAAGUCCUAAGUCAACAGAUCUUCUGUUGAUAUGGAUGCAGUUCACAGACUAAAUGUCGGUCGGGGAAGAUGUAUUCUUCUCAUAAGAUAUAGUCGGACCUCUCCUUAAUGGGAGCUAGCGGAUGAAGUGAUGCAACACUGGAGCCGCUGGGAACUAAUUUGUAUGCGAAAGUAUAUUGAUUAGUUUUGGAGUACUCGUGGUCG
# Settings: 30 °C
Record form. Attribute: self-splicing fitness (ln). Fill in for each entry.
Answers are plain numbers.

Examples with their reported self-splicing fitness (ln) follow.
>  <Seq text>
AGGUAGCAAUAUUACGUGGG

>  <self-splicing fitness (ln)>
-3.91

$$$$
>  <Seq text>
CGCCAGCAAUAUUACGAGCC

>  <self-splicing fitness (ln)>
-1.63

$$$$
>  <Seq text>
GGUGAGCAAUAUUACGCUUG

>  <self-splicing fitness (ln)>
-3.71

$$$$
>  <Seq text>
AAUAAGCAAUAUUACGCGGC

>  <self-splicing fitness (ln)>
-2.74

$$$$

For every item below, please supply its self-splicing fitness (ln).
1. GUCGAGCAAUAUUACGACUG
2. UACAAGCAAUAUUACGUGAG
3. GAGUAGCAAUAUUACGUAGU
4. AGGGAGCAAUAUUACGAUUG

## Output
[-3.17, -3.54, -4.34, -3.9]

Batch lookup, self-splicing fitness (ln) per entry.
1. CCCCAGCAAUAUUACGAGGG
2. UCUAAGCAAUAUUACGGUUG
3. CUCAAGCAAUAUUACGGAAA

## Output
1: -3.83; 2: -2.82; 3: -3.21

====

# Test details: self-splicing fitness, log relative to wild type (ln ratio); higher = more splicing; Tetrahymena group I intron in knt gene, E. coli kanamycin selection, DiMSum; sequences stand for … in CUCUCU…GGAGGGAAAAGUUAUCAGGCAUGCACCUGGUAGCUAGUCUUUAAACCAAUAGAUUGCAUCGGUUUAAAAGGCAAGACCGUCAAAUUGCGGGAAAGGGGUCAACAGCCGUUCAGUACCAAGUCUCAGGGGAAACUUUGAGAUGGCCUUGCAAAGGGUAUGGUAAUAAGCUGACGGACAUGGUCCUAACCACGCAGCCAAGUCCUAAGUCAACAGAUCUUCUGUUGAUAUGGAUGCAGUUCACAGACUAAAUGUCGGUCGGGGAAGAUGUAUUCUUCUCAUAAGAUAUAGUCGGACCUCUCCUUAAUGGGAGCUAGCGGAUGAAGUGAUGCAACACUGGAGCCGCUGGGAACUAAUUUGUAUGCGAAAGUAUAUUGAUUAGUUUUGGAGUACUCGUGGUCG
# Settings: 37 °C
Quantity measured: self-splicing fitness (ln)
Give bare numbers.

# count of solved cases: 5
>  <Seq text>
UGUGAGCAAUAUUACGUAGC

>  <self-splicing fitness (ln)>
-1.65

$$$$
>  <Seq text>
CGUAAGCAAUAUUACGAAGU

>  <self-splicing fitness (ln)>
-2.51

$$$$
>  <Seq text>
ACUAAGCAAUAUUACGUCGG

>  <self-splicing fitness (ln)>
-1.04

$$$$
>  <Seq text>
UAGCAGCAAUAUUACGUUAG

>  <self-splicing fitness (ln)>
-1.34

$$$$
>  <Seq text>
UUCCAGCAAUAUUACGGGCG

>  <self-splicing fitness (ln)>
0.254

$$$$

State the recorded self-splicing fitness (ln) for every item in the following list.
1. UUAGAGCAAUAUUACGAUGC
2. CUGCAGCAAUAUUACGAUAU
3. CCGGAGCAAUAUUACGGUAC
4. GCCAAGCAAUAUUACGGGCC

## Output
-2.57
-2.41
-2.25
-2.13

====

Please respond with reported self-splicing fitness (ln) for every item in the list.
# Test details: self-splicing fitness, log relative to wild type (ln ratio); higher = more splicing; Tetrahymena group I intron in knt gene, E. coli kanamycin selection, DiMSum; sequences stand for … in CUCUCU…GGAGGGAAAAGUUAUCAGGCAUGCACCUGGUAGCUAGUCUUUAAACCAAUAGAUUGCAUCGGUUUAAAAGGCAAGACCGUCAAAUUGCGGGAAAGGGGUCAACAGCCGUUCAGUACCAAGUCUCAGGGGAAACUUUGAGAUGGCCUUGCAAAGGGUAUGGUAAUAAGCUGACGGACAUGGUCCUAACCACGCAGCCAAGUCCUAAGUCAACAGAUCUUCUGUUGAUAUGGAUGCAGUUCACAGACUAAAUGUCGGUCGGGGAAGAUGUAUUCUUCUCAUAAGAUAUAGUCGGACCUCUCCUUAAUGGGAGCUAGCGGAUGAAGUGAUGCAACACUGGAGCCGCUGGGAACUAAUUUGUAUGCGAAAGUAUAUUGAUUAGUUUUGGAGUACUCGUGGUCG
# Settings: 30 °C
Answers are plain numbers.

>  <Seq text>
UACAAGCAAUAUUACGAAAU

>  <Quantitative readout>
-2.52

$$$$

For each entry beneath this line, provide reported self-splicing fitness (ln).
1. UUCAAGCAAUAUUACGGACC
2. CUUAAGCAAUAUUACGUUUU

## Output
1. -2.45
2. -4.2

====

Could you please report measured self-splicing fitness (ln) for the items listed next?
# Test details: self-splicing fitness, log relative to wild type (ln ratio); higher = more splicing; Tetrahymena group I intron in knt gene, E. coli kanamycin selection, DiMSum; sequences stand for … in CUCUCU…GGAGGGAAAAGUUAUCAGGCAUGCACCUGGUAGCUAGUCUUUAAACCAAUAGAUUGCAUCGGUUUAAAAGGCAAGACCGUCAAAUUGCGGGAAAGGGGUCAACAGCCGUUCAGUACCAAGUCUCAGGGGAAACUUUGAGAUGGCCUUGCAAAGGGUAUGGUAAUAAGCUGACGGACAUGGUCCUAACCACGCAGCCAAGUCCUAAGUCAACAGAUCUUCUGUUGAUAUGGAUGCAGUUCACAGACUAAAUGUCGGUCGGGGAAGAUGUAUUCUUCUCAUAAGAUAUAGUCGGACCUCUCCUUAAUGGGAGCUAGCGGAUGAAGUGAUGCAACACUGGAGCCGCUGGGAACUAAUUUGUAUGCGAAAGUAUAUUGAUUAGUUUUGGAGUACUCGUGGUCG
# Settings: 30 °C

For each of the sequences below, note its self-splicing fitness (ln).
1. ACCGAGCAAUAUUACGCAUU
2. UUUUAGCAAUAUUACGGAAA
3. GAGAAGCAAUAUUACGUCAG
4. CCUUAGCAAUAUUACGCUCU

## Output
1. -3.91
2. -1.73
3. -3.34
4. -3.8

Each sequence below has a recorded value; state its self-splicing fitness (ln).
1. AAUCAGCAAUAUUACGGGCC
2. GUCGAGCAAUAUUACGCAUA
3. AAAGAGCAAUAUUACGUCUC

## Output
1. -3.19
2. -2.14
3. -3.18
